Entries and their Ranking score values follow.
target: human NTCP (Homo sapiens); assay: Screening taurocholate uptake assay (96-well, [14C]taurocholate, 10 µM drug); conditions: ranking over the functional and the binding screening assay
Attribute measured: Ranking score

INSERT INTO measurements (molecule, attribute_measured, numeric_result) VALUES
  ('CS(=O)(=O)c1ccc(C2=C(c3ccccc3)C(=O)OC2)cc1', 'Ranking score', 212.386),
  ('CCCCNc1c(C(=O)OCC)c(C)nc2c1cnn2CC.Cl [Tracazolate hydrochloride]', 'Ranking score', 238.155),
  ('O=C(OCCOCCO)c1ccccc1Nc1cccc(C(F)(F)F)c1 [Etofenamate]', 'Ranking score', 165.439),
  ('CCCOc1ccc2nc(NC(=O)OC)[nH]c2c1', 'Ranking score', 199.274),
  ('COc1cc(-c2ccc(N=Nc3ccc4c(S(=O)(=O)[O-])cc(S(=O)(=O)[O-])c(N)c4c3O)c(OC)c2)ccc1N=Nc1ccc2c(S(=O)(=O)[O-])cc(S(=O)(=O)[O-])c(N)c2c1O.[Na+].[Na+].[Na+].[Na+]', 'Ranking score', 17.4642),
  ('CC1=C(/C=C/C(C)=C/C=C/C(C)=C/C(=O)O)C(C)(C)CCC1', 'Ranking score', 197.388),
  ('CC(=O)Oc1ccccc1C(=O)Nc1ncc([N+](=O)[O-])s1 [Nitazoxanide]', 'Ranking score', 189.082),
  ('CCCCOc1ccc(CC(=O)NO)cc1', 'Ranking score', 265.556),
  ('CC[C@@]1([C@H]2O[C@H]([C@H]3O[C@@](O)(CO)[C@H](C)C[C@@H]3C)C[C@H]2C)CC[C@H]([C@@]2(C)CC[C@]3(C[C@H](O)[C@@H](C)[C@@H]([C@H](C)[C@H](OC)[C@@H](C)C(=O)[O-])O3)O2)O1.[Na+] [Monensin sodium salt]', 'Ranking score', 257.93),
  ('CC1(C)S[C@@H]2[C@H](NC(=O)[C@H](N)c3ccc(O)cc3)C(=O)N2[C@H]1C(=O)O', 'Ranking score', 277.274),
  ('COc1ccc2c(c1)c(CC(=O)O)c(C)n2C(=O)c1ccc(Cl)cc1', 'Ranking score', 264.174);

---

# B-score functional assay per entry
Biological target: human NTCP (Homo sapiens)
Sequence (Q14973 1-349): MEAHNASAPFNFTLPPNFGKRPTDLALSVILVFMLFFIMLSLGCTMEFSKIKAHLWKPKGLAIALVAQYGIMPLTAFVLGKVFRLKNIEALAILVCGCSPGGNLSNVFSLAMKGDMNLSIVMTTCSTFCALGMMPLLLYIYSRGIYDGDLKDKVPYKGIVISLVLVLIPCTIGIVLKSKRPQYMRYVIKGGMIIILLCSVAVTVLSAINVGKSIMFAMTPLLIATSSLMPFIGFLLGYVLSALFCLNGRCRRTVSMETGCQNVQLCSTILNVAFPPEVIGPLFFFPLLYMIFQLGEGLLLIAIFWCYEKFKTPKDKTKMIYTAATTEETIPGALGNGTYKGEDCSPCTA
Test: Screening taurocholate uptake assay (96-well, [14C]taurocholate, 10 µM drug)
Details: screening taurocholate uptake, 10 µM drug
Structures can show the parent of a compound that is named as a salt.
Attribute measured: B-score functional assay

INSERT INTO results (compound, target_desc, attribute_measured, numeric_result) VALUES
  ('O=C(CCCCCCC(=O)Nc1ccccc1)NO', 'human NTCP (Homo sapiens)', 'B-score functional assay', -0.284),
  ('CC(=O)[C@@]1(O)CC[C@H]2[C@@H]3C[C@H](C)C4=CC(=O)C=C[C@]4(C)[C@@]3(F)[C@@H](O)C[C@@]21C', 'human NTCP (Homo sapiens)', 'B-score functional assay', -0.26),
  ('CSc1ccc2c(c1)N(CCC1CCCCN1C)c1ccccc1S2 (stereo not drawn) [Thioridazine hydrochloride]', 'human NTCP (Homo sapiens)', 'B-score functional assay', 0.02),
  ('Nc1ccc(S(=O)(=O)c2ccc(N)cc2)cc1', 'human NTCP (Homo sapiens)', 'B-score functional assay', 0.012),
  ('CO/N=C(\C(=O)N[C@@H]1C(=O)N2C(C(=O)OC(C)OC(C)=O)=C(COC(N)=O)CS[C@H]12)c1ccco1 (stereo partly drawn)', 'human NTCP (Homo sapiens)', 'B-score functional assay', -0.317),
  ('C[N+](C)(C)CCOC(N)=O', 'human NTCP (Homo sapiens)', 'B-score functional assay', 0.619),
  ('Cl.Cl.c1ccc2c(c1)CCCc1cc(NCCN3CCOCC3)nnc1-2', 'human NTCP (Homo sapiens)', 'B-score functional assay', -1.983),
  ('N=C(N)N/N=C/c1c(Cl)cccc1Cl [Guanabenz acetate]', 'human NTCP (Homo sapiens)', 'B-score functional assay', -1.531),
  ('C#CCN(C)CCCOc1ccc(Cl)cc1Cl [Clorgyline hydrochloride]', 'human NTCP (Homo sapiens)', 'B-score functional assay', 0.335);

---

molecular target: human NTCP (Homo sapiens, UniProt Q14973); assay: Screening taurocholate uptake assay (96-well, [14C]taurocholate, 10 µM drug); conditions: Prestwick library screen, taurocholate uptake, 10 µM drug
Attribute measured: B-score functional assay

INSERT INTO assay_data (compound, target_desc, numeric_result) VALUES
  ('Nc1nc(F)nc2c1ncn2[C@@H]1O[C@H](CO)[C@@H](O)[C@@H]1O', 'human NTCP (Homo sapiens, UniProt Q14973)', 1.199),
  ('Cn1c(=O)c2c(ncn2CC(O)CO)n(C)c1=O (stereo not drawn)', 'human NTCP (Homo sapiens, UniProt Q14973)', -0.019),
  ('Cc1cc(C)nc([N-]S(=O)(=O)c2ccc(N)cc2)n1.[Na+] [Sulfamethazine sodium salt]', 'human NTCP (Homo sapiens, UniProt Q14973)', 0.394);

---

Molecular target: human NTCP (Homo sapiens, UniProt Q14973)
Sequence (Q14973 1-349): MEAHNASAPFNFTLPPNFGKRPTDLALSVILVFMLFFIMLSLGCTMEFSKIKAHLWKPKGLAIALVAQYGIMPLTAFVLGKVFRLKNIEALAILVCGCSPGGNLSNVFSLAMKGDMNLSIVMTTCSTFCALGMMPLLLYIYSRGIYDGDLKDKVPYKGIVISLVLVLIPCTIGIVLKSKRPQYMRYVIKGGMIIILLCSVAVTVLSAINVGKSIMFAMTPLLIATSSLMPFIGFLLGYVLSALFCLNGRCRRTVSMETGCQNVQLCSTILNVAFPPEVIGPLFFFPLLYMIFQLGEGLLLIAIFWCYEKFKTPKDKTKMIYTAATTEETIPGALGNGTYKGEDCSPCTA
Assay: Screening taurocholate uptake assay (96-well, [14C]taurocholate, 10 µM drug)
Details: combined ranking of functional and binding screening assays
Structures can show the parent of a compound that is named as a salt.
Parameter Ranking score: see the listing below.
Attribute measured: Ranking score

INSERT INTO measurements (compound, numeric_result) VALUES
  ('CC1Cc2ccccc2N1NC(=O)c1ccc(Cl)c(S(N)(=O)=O)c1 (centres unmarked) [Indapamide]', 559.557),
  ('Nc1ccc(S(=O)(=O)Nc2ccc(Cl)nn2)cc1 [Sulfachloropyridazine]', 530.669),
  ('CC(N)CCCC(C)(C)O (centres unmarked) [Heptaminol hydrochloride]', 1189.85),
  ('C[N+]1(C)CCC(=C(c2ccccc2)c2ccccc2)CC1 [Diphemanil methylsulfate]', 1220.85),
  ('CC(=O)N[C@@H](CS)C(=O)O [Acetylcysteine]', 542.19),
  ('NC(=O)OCCCc1ccccc1 [Phenprobamate]', 613.275),
  ('Nc1nc2c(ncn2CCC(CO)CO)c(=O)[nH]1 [Penciclovir]', 573.819),
  ('CCN(CC)CCOC(=O)C(c1ccccc1)C1CCCCC1 (centres unmarked) [Drofenine hydrochloride]', 532.5),
  ('CN1CCC(=C2c3ccccc3Sc3ccccc32)CC1 [Pimethixene maleate]', 556.525),
  ('CC(CCc1ccccc1)NCC(O)c1ccc(O)c(C(N)=O)c1 (centres unmarked) [Labetalol hydrochloride]', 596.712),
  ('Clc1ccc2c(c1)C(N1CCNCC1)=Nc1ccccc1O2 [Amoxapine]', 604.055),
  ('CC(=O)CCCCn1c(=O)c2c(ncn2C)n(C)c1=O [Pentoxifylline]', 582.174),
  ('NC(=O)OCC(O)COc1ccc(Cl)cc1 (centres unmarked) [Chlorphensin carbamate]', 1211.24),
  ('CNCC[C@@H](Oc1ccccc1C)c1ccccc1 [Tomoxetine hydrochloride]', 493.908),
  ('CCCCC(CC)CN1CN(CC(CC)CCCC)CC(C)(N)C1 (centres unmarked) [Hexetidine]', 491.543),
  ('N#Cc1cc(NC(=O)C(=O)O)c(Cl)c(NC(=O)C(=O)O)c1 [Lodoxamide]', 609.015),
  ('OCCOCCN1CCN(C2=Nc3ccccc3Sc3ccccc32)CC1 [Quetiapine hemifumarate]', 473.772),
  ('Nc1ccccc1S(N)(=O)=O [2-Aminobenzenesulfonamide]', 626.378),
  ('CCn1cc(C(=O)[O-])c(=O)c2ccc(C)nc21.[Na+] [Nalidixic acid sodium salt]', 500.32),
  ('CN(C)CCCOc1nn(Cc2ccccc2)c2ccccc12 [Benzydamine hydrochloride]', 571.97),
  ('Cc1cccc(C)c1OCC(C)N (centres unmarked) [Mexiletine hydrochloride]', 487.63),
  ('CO/N=C(\C(=O)N[C@@H]1C(=O)N2C(C(=O)O)=C(C[N+]3(C)CCCC3)CS[C@H]12)c1csc(N)n1 [Cefepime hydrochloride]', 1157.98),
  ('CNCC(O)c1ccc(O)c(O)c1 (centres unmarked) [Racepinephrine HCl]', 629.338),
  ('O=C1CCc2ccc(OCCCCN3CCN(c4cccc(Cl)c4Cl)CC3)cc2N1 [Aripiprazole]', 580.393),
  ('CN1C(C(=O)Nc2ccccn2)=C(O)c2sccc2S1(=O)=O [Tenoxicam]', 641.502),
  ('CN1CCN(C(c2ccccc2)c2ccccc2)CC1.Cl [Cyclizine hydrochloride]', 578.424);
